Exercise: for every item that follows, state its recorded Mean fluorescent intensity.
ASSAY_TARGET: T1, BCMA on cells (293T cells transfected with BCMA; H929, MM.1S and U266 cell lines expressing BCMA) (human, UniProt Q02223 1-184)
T1 construct: H929, MM.1S and U266 carry the native protein; also called B-cell Maturation Antigen; TNFRSF17
T1 sequence: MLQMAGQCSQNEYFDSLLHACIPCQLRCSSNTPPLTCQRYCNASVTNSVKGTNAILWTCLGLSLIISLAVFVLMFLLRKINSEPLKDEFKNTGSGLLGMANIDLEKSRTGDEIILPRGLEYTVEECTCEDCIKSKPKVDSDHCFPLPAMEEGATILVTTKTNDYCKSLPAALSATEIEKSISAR
PROTOCOL_DETAILS: flow cytometry, H929 cells; further: test concentration or dose not given here
Answer with a number only.

# Mean fluorescent intensity lookup, item SCT-Aa05(h/h) (antibody, V domains shown, Full IgG format, chimeric: human IgG1 heavy chain constant region, human kappa light chain constant region) VH: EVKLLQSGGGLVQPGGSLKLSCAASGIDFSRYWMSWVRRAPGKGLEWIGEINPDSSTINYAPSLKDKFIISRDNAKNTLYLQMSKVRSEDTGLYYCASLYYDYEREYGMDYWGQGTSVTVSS VL: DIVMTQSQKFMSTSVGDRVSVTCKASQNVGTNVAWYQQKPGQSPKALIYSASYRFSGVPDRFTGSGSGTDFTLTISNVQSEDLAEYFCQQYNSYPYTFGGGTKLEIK
758

Then this binder: SCT-Aa08(m/m) (antibody, V domains shown, Full IgG format: mouse IgG1 heavy chain constant region, mouse kappa light chain constant region) VH: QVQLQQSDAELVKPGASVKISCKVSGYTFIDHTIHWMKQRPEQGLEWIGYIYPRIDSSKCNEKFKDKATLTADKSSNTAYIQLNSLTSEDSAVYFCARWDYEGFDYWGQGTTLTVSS VL: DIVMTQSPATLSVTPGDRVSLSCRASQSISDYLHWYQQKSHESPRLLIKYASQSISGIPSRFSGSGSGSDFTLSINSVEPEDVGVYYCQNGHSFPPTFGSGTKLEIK
1820
